system: 922993-354-T-J3-PDC complex spheroids, viability; experiment: Anticancer human tumor 922993-354-T-J3-PDC patient-derived endometrial carcinoma cell line growth inhibition [GQUAD]; settings: curve of first compound; second compound 1 µM
pIC50: −log10 of the molar value.
measured-metric: pIC50

[
  {
    "molecule": "O=C(NO)c1cnc(N2CCN(S(=O)(=O)c3ccc4ccccc4c3)CC2)nc1 + Cc1cnc(CNC(=O)c2c(=O)c3ccc(N4CCCN(C)CC4)nc3n3c2sc2ccccc23)cn1",
    "result": "> 7.50"
  },
  {
    "molecule": "CC1COCCN1c1cc(C2(S(C)(=N)=O)CC2)nc(-c2ccnc3[nH]ccc23)n1 (stereo not drawn) + Cc1cnc(CNC(=O)c2c(=O)c3ccc(N4CCCN(C)CC4)nc3n3c2sc2ccccc23)cn1",
    "result": "< 5.00"
  },
  {
    "molecule": "C=CC(=O)N1CCN(c2nc(=O)n(-c3c(C)ccnc3C(C)C)c3nc(-c4c(O)cccc4F)c(F)cc23)C(C)C1 (stereo not drawn) + Cc1[nH]c2ccc(F)cc2c1-c1nc2c3cccnc3c3ncccc3c2[nH]1",
    "result": "< 5.00"
  }
]

* * *

tested on: 922993-354-T-J3-PDC complex spheroids, viability; assay: Anticancer human tumor 922993-354-T-J3-PDC cell line growth inhibition [GQUAD]; conditions: second compound 0.0316 µM; first compound 0.0316 µM; stronger effect = lower value;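 further: spheroids exposed to compounds for seven days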;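 on viability, T/C: 100% = DMSO vehicle control viability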
measured-metric: viability, T/C

[
  {
    "molecule": "O=C(c1cc(Cc2n[nH]c(=O)c3ccccc23)ccc1F)N1CCN(C(=O)C2CC2)CC1 + Cc1[nH]c2ccc(F)cc2c1-c1nc2c3cccnc3c3ncccc3c2[nH]1",
    "result": "107%"
  },
  {
    "molecule": "CC1COCCN1c1cc(C2(S(C)(=N)=O)CC2)nc(-c2ccnc3[nH]ccc23)n1 (centres undefined) + Cc1[nH]c2ccc(F)cc2c1-c1nc2c3cccnc3c3ncccc3c2[nH]1",
    "result": "103%"
  },
  {
    "molecule": "COc1cc(C2c3cc4c(cc3C(OC3OC5COC(C)OC5C(O)C3O)C3COC(=O)C23)OCO4)cc(OC)c1O (centres undefined) + Cc1[nH]c2ccc(F)cc2c1-c1nc2c3cccnc3c3ncccc3c2[nH]1",
    "result": "95.3%"
  },
  {
    "molecule": "C=CC(=O)N1CCN(c2nc(=O)n(-c3c(C)ccnc3C(C)C)c3nc(-c4c(O)cccc4F)c(F)cc23)C(C)C1 (centres undefined) + Cc1[nH]c2ccc(F)cc2c1-c1nc2c3cccnc3c3ncccc3c2[nH]1",
    "result": "94.6%"
  }
]

* * *

system: 922993-354-T-J3-PDC complex spheroids, viability; assay: Anticancer human tumor 922993-354-T-J3-PDC cell line growth inhibition [GQUAD]; conditions: second compound 0.316 µM; first compound 0.316 µM; stronger effect = lower value;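 further: spheroids exposed to compounds for seven days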;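 on viability, T/C: 100% = DMSO vehicle control viability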
The reader will find reported viability, T/C values listed item by item below.
measured-metric: viability, T/C

[
  {
    "compound": "C#Cc1c(F)ccc2cc(O)cc(-c3ncc4c(N5CC6CCC(C5)N6)nc(OCC56CCCN5CC(F)C6)nc4c3F)c12 (configuration not stated) + CN(C)c1ccc(Nc2c3ccc(NC(=O)CCN4CCCC4)cc3nc3cc(NC(=O)CCN4CCCC4)ccc23)cc1",
    "subject-of-test": "922993-354-T-J3-PDC complex spheroids, viability",
    "result": "97.7%"
  },
  {
    "compound": "O=C(NO)c1cnc(N2CCN(S(=O)(=O)c3ccc4ccccc4c3)CC2)nc1 + Cc1[nH]c2ccc(F)cc2c1-c1nc2c3cccnc3c3ncccc3c2[nH]1",
    "subject-of-test": "922993-354-T-J3-PDC complex spheroids, viability",
    "result": "72.2%"
  },
  {
    "compound": "CC1COCCN1c1cc(C2(S(C)(=N)=O)CC2)nc(-c2ccnc3[nH]ccc23)n1 (configuration not stated) + Cc1[nH]c2ccc(F)cc2c1-c1nc2c3cccnc3c3ncccc3c2[nH]1",
    "subject-of-test": "922993-354-T-J3-PDC complex spheroids, viability",
    "result": "109%"
  },
  {
    "compound": "COc1cc(C2c3cc4c(cc3C(OC3OC5COC(C)OC5C(O)C3O)C3COC(=O)C23)OCO4)cc(OC)c1O (configuration not stated) + Cc1cnc(CNC(=O)c2c(=O)c3ccc(N4CCCN(C)CC4)nc3n3c2sc2ccccc23)cn1",
    "subject-of-test": "922993-354-T-J3-PDC complex spheroids, viability",
    "result": "38.6%"
  },
  {
    "compound": "C=CCn1c(=O)c2cnc(Nc3ccc(N4CCN(C)CC4)cc3)nc2n1-c1cccc(C(C)(C)O)n1 + CN(C)c1ccc(Nc2c3ccc(NC(=O)CCN4CCCC4)cc3nc3cc(NC(=O)CCN4CCCC4)ccc23)cc1",
    "subject-of-test": "922993-354-T-J3-PDC complex spheroids, viability",
    "result": "73.2%"
  },
  {
    "compound": "CC(C)(O)C1CCC(Nc2ccc3ncc(-c4cccc(C(F)(F)F)c4)n3n2)CC1 (configuration not stated) + Cc1[nH]c2ccc(F)cc2c1-c1nc2c3cccnc3c3ncccc3c2[nH]1",
    "subject-of-test": "922993-354-T-J3-PDC complex spheroids, viability",
    "result": "91.2%"
  },
  {
    "compound": "COc1cccc2c1C(=O)c1c(O)c3c(c(O)c1C2=O)CC(O)(C(=O)CO)CC3OC1CC(N)C(O)C(C)O1 (configuration not stated) + Cc1[nH]c2ccc(F)cc2c1-c1nc2c3cccnc3c3ncccc3c2[nH]1",
    "subject-of-test": "922993-354-T-J3-PDC complex spheroids, viability",
    "result": "92.6%"
  }
]
